B1: LINE1-full (parent)
chain: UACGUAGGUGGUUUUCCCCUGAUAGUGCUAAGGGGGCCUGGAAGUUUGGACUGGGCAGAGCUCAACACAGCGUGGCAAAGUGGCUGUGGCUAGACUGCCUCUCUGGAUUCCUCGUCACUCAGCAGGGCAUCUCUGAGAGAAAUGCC

variants of: B1; assay: self-cleavage, relative activity (ratio to wild type); higher = more cleavage; in vitro, sequencing; the parent is a self-cleaving ribozyme
The following variants are shown together with reported self-cleavage values.
Write the number on its own, no unit after it.

sequenceContent: UACGUAGGUGGUUUUCCCCUGAUAGUGCUAAGGGGACCUGGAAGUUUGGACUGGGCAGAGCUCAACACGGCGUGGCAAAGUGGCUGUGGCUAGACUGCCUCUCUGGAUUCCUCGUCACUCAGCAGGGCAUCUCUGAGAGAAAUGCC
self-cleavage: 0.34
//
sequenceContent: UACGUAGGUGGUUUUCCCCUGAUAGUGCUAAGGGGGCCUGGUAGUUUGGACUGGGCAGAGCUCAACACAGCGUGGCAAAGUGGCUGUGGCUAGACUGCCUCUCUGGAUUCCUCGUCACUCAGCUGGGCAUCUCUGAGAGAAAUGCC
self-cleavage: 1.09
//
sequenceContent: UACGUAGGUGGUUUUCCCCUGAUAGUGCUAAGGGGGCCUGGAAGUUUGGACUGGGCAGAACUCAACACAGCGUGGCAAAGUGGCUGUGGCUAGACUGCCUCUCUGGAUCCCUCGUCACUCAGCAGGGCAUCUCUGAGAGAAAUGCC
self-cleavage: 0.02
//
sequenceContent: UACGUAGGUGGUUUUCCCCCGAUAGUGCUAAGGGGGCCUGGAAGUUUGGACUGGGCAGUGCUCAACACAGCGUGGCAAAGUGGCUGUGGCUAGACUGCCUCUCUGGAUUCCUCGUCACUCAGCAGGGCAUCUCUGAGAGAAAUGCC
self-cleavage: 0.82
//
sequenceContent: UACGUAGGUGGUGUUCCCCUGAUAGUGCUAAGGGGGCCUGGAAGUUUGGACUGGGCAGAGCUCAACACAGCGUGGCAAAGUGGCAGUGGCUAGACUGCCUCUCUGGAUUCCUCGUCACUCAGCAGGGCAUCUCUGAGAGAAAUGCC
self-cleavage: 0.06
//
sequenceContent: UACGUAGGUGGUUUUCCCCUGAUAGUGCUAAGGGGGCCUGGAAGUUUGGACUGGGCAGAGCUCAACACAGCGUGGUAAAGUGGCCGUGGCUAGACUGCCUCUCUGGAUUCCUCGUCACUCAGCAGGGCAUCUCUGAGAGAAAUGCC
self-cleavage: 0.36
//
sequenceContent: UACGUAGGUGGUUUUCCCCUGAUAGUGCUAAGGGGGCCUGGAAGUUUGGACUGGGCAGAGCUCAACACAGCGUGGCAAAGUGGCUGUGGCUAGACUGCCUCUCUGGAUCCCUCGUCACUCAGCAGGGCAUCCCUGAGAGAAAUGCC
self-cleavage: 1.03
//
sequenceContent: UACGUAGGUGGUUUUCCCCUGAUAGUGCUAAGGGGGCCUGGAAGUUUGGACUGGGCAGAGCUCAACACAGCGUGGCAAAGUGGCUGUGACUAGACUGCCUCUCUGGAUUCCUCGCCACUCAGCAGGGCAUCUCUGAGAGAAAUGCC
self-cleavage: 0.04

Please look up its self-cleavage: "UACGUAGGUGGUUUUCCCCUGAUGGUGCUAAGGGGGCCUGGAAGUUUGGACUGGGCAGAGCUCAACACAGCGUGGCAAAGUGGCUGUGGCUAGACUGCCUCUCUGGAUUCCUCGUCACUCAGCAGGGCAUCUCUGGGAGAAAUGCC"
1.15

Please look up its self-cleavage: "UACGUAGGUGGUUUUCCCCUGAUAGUGCUAAGGGGGCCUGGAAGUAUGGACUGGGCAGAGCUCAACACAGCGUGGCGAAGUGGCUGUGGCUAGACUGCCUCUCUGGAUUCCUCGUCACUCAGCAGGGCAUCUCUGAGAGAAAUGCC"
2.14

Please look up its self-cleavage: "UACGCAGGUGGUUUUCCCCUGAUAGUGCUAAGGGGGCCUGGAAGUUUGGACUGGGCAGAGCUCAACACAGCGUGGCAAAGUGGCUGUGGCUAGACUGCCUCUCUGGAUUCCUCGUCACUCAGCAGGGCAUCUCUGAGAGUAAUGCC"
0.86

Please look up its self-cleavage: "UACGUAGGUGGUGUUCCCCUGAUAGUGCUAAGGGGGCCUGGAAGUUUGGACUGGGCAGAGCUCAACACAGCGUGGCUAAGUGGCUGUGGCUAGACUGCCUCUCUGGAUUCCUCGUCACUCAGCAGGGCAUCUCUGAGAGAAAUGCC"
1.31

Please look up its self-cleavage: "UACGUAGGUGGUUUUCCCCUGAUAGCGCAAAGGGGGCCUGGAAGUUUGGACUGGGCAGAGCUCAACACAGCGUGGCAAAGUGGCUGUGGCUAGACUGCCUCUCUGGAUUCCUCGUCACUCAGCAGGGCAUCUCUGAGAGAAAUGCC"
1.35

Please look up its self-cleavage: "UACGUAGGUGGUUUUCCCCUGAUAGUGCUAAGGGGGCCUGGAAGUUUGGACUGGGCGGAGCUCAACACAGCGUGGCAAAGCGGCUGUGGCUAGACUGCCUCUCUGGAUUCCUCGUCACUCAGCAGGGCAUCUCUGAGAGAAAUGCC"
0.89

Please look up its self-cleavage: "UACGUAGGUGGUUUUCCCCUGAUAGUGCUAAGGGGGCCUGGAAGUUUAGACUGGGCAGAGCUCAGCACAGCGUGGCAAAGUGGCUGUGGCUAGACUGCCUCUCUGGAUUCCUCGUCACUCAGCAGGGCAUCUCUGAGAGAAAUGCC"
0.03

Please look up its self-cleavage: "UACGUAGGUGGUUUUCCCCUGAUAGUGCUAAGGGGGCCUGGAAGUUUGGACUGGGCAGAGCCCAACACAGCGUGGCAGAGUGGCUGUGGCUAGACUGCCUCUCUGGAUUCCUCGUCACUCAGCAGGGCAUCUCUGAGAGAAAUGCC"
0.05
